Observed IC50 values for Full length KDM2B (Homo sapiens (Human)) are listed in what follows.
Answer format: numeric, nM implied, no suffix.

Please review the following examples before continuing.
COc1ccc2cc(C(=O)C3CCCN(C4CCCC4)C3)ccc2c1C (stereo not shown); 118
COc1ccc2cc(C(=O)C3CN(C4CCC4)CCN3Cc3cccc(C#N)c3)ccc2c1 (stereo not shown); 22.3
CCCN1CC[C@@H](C)[C@H](C(=O)c2ccc3cc(C#N)ccc3c2)C1 (stereo in doubt) [Example 163b]; 45.4

Lab note: next molecule to report on.
Lab note: measured IC50 of N#Cc1cc(C(=O)C2CCCN(C3CCC3)C2)cc2ccccc12 (stereo not shown) was 101

###

Observed IC50 values for Full length KDM2B (Homo sapiens (Human), UniProt Q8NHM5) are listed in what follows.

Please review the following examples before continuing.
COc1ccc2cc(C(=O)C3CCCN(CC4CC4)C3)ccc2c1 (stereo not drawn); 208 nM
Cn1c(=O)n(C)c2cc(C(=O)C3CCCN(CC4CC4)C3)ccc21 (stereo not drawn); 442 nM

Lab note: next molecule to report on.
IC50 of Cc1cccc2ccc(C(=O)C3CCCN(CC4CC4)C3)cc12 (stereo not drawn) , assay on Full length KDM2B (Homo sapiens (Human), UniProt Q8NHM5), is 169 nM

###

# target: Full length KDM2B (Homo sapiens (Human))
IC50 values by entry
Answer format: numeric, nM implied, no suffix.

COc1ccc2cc(C(=O)[C@@H]3CN(C4CCC4)CC[C@@H]3c3ccccc3)ccc2c1 (single isomer, unassigned) [Example 141a]; 1000
CS(=O)(=O)c1ccc2cc(C(=O)C3CCCN(C4CCC4)C3)ccc2c1 (stereo not shown); 42.6

Lab note: measured IC50 of COc1ccc2cc(C(=O)C3CCCN(C4CCC4)C3)ccc2c1 (stereo not shown) was 619

Lab note: measured IC50 of O=C(c1ccc(Oc2ccccc2)cc1)C1CCCN(CC2CC2)C1 (stereo not shown) was 2100

###

# target: Full length KDM2B (Homo sapiens (Human), UniProt Q8NHM5)
# Sequence (Q8NHM5 whole entry): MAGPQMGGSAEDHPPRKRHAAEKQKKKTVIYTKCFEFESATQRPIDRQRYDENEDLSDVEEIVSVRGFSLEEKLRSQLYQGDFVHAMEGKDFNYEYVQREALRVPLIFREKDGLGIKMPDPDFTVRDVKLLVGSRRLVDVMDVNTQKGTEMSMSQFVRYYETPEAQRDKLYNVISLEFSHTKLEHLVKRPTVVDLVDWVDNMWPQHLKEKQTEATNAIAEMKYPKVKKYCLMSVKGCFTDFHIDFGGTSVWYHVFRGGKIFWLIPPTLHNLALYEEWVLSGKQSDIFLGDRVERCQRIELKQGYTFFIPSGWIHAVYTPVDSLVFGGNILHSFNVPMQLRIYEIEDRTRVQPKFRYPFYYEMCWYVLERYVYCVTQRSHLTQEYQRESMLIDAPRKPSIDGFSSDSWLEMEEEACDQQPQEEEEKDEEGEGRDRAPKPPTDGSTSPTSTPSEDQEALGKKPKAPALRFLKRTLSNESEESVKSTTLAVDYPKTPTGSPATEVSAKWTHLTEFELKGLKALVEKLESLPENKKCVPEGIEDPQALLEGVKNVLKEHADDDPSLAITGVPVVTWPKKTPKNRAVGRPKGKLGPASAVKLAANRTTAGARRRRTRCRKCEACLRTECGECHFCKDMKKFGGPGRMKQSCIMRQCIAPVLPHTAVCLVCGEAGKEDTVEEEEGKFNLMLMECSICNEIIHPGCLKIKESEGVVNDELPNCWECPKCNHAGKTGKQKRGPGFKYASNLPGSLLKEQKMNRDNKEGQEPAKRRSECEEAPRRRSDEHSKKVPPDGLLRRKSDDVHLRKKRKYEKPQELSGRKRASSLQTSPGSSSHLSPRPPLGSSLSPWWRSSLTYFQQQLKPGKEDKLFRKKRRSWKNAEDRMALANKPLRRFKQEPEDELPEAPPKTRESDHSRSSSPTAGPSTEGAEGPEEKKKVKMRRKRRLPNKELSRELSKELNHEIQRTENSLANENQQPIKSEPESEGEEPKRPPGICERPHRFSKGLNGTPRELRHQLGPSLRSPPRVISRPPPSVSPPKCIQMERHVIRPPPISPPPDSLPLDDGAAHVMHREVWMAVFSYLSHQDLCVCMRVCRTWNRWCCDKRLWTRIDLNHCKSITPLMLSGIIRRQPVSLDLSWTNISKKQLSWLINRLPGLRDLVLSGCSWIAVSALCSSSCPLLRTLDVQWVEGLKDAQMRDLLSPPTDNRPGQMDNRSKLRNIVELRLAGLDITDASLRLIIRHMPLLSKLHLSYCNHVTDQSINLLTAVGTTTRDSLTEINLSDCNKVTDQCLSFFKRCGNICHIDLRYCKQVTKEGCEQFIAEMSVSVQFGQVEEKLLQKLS
pIC50: −log10 of the molar value.
Criterion: pIC50 meeting or surpassing 6. Met: 1.0. Not met: 0.0.

Inquiry: Is it the case that CC1CC1CN1CCCC(C(=O)c2ccc3cc(C#N)ccc3c2)C1 (centres unmarked) [Example 164] has pIC50 reaching or exceeding 6?
Reply text: 1.0

Inquiry: Is it the case that C[C@H]1CCN(C2CCC2)C[C@@H]1C(=O)c1ccc2cc(C#N)ccc2c1 (stereo in doubt) [Example 161a] has pIC50 reaching or exceeding 6?
Reply text: 0.0

###

# target: Full length KDM2B (Homo sapiens (Human), UniProt Q8NHM5)
Label t when IC50 < 200 nM; otherwise f.

// below: answered compounds
CCC1CCN(C2CCC2)CC1C(=O)c1ccc2cc(OC)ccc2c1 (single isomer, unassigned) [Example 142c]; f
COc1ccc2cc(C(=O)C3CCCN(C4COC4)C3)ccc2c1 (stereo not shown) [Example 14]; f
CCC[C@H]1CCN(C2CCC2)C[C@H]1C(=O)c1ccc2c(CC#N)c(OC)ccc2c1 (stereo in doubt) [Example 184b]; t
CS(=O)(=O)c1ccc2cc(C(=O)C3CCCN(C4CCCC4)C3)ccc2c1 (stereo not shown) [Example 171]; t
CCCN1CCCC(C(=O)c2cccc(Cl)c2)C1 (stereo not shown) [Example 92]; f

Inquiry: IC50 strictly < 200 nM for this compound? CCN1CCN(C2CCC2)CC1C(=O)c1ccc2cc(OC)ccc2c1 (stereo not shown) [Example 190]
Reply text: f

Inquiry: IC50 strictly < 200 nM for this compound? N#Cc1cc(C(=O)C2CCCN(C3CCCC3)C2)cc2ccccc12 (stereo not shown) [Example 45]
Reply text: f

Inquiry: IC50 strictly < 200 nM for this compound? COc1ccc2cc(C(=O)[C@@H]3CCCN(C4CCCC4)C3)ccc2c1 [Example 9]
Reply text: f

Inquiry: IC50 strictly < 200 nM for this compound? O=C(c1ccc(Oc2ccccc2)cc1)[C@@H]1CCCN(CC2CC2)C1 [Example 30]
Reply text: f

Inquiry: IC50 strictly < 200 nM for this compound? CC1CCN(CC2CC2)CC1C(=O)c1ccc2c(O)cccc2c1 (single isomer, unassigned) [Example 151b]
Reply text: t

Inquiry: IC50 strictly < 200 nM for this compound? CCCC1CCN(C2CCC2)CC1C(=O)c1ccc2cc(OC)ccc2c1 (single isomer, unassigned) [Example 140d]
Reply text: t

Inquiry: IC50 strictly < 200 nM for this compound? COc1cccc2cc(C(=O)C3CCCN(CC4CC4)C3)ccc12 (stereo not shown) [Example 114]
Reply text: f

Inquiry: IC50 strictly < 200 nM for this compound? COc1ccc(C(=O)C2CCCN(CC3CC3)C2)cc1 (single isomer, unassigned) [Example 110a]
Reply text: f

Inquiry: IC50 strictly < 200 nM for this compound? O=C(c1ccc(-c2ccccc2)cc1)[C@@H]1CCCN(CC2CC2)C1 [Example 32]
Reply text: f

Inquiry: IC50 strictly < 200 nM for this compound? CC[C@H]1CCN(C2CCC2)C[C@@H]1C(=O)c1ccc2c(CC#N)c(OC)ccc2c1 (stereo in doubt) [Example 183b]
Reply text: t

###

Observed pIC50 values for Full length KDM2B (Homo sapiens (Human), UniProt Q8NHM5) are listed in what follows.
By convention, pIC50 is the negative base-10 log of a molar concentration.

Please review the following examples before continuing.
COc1ccc2cc(C(=O)C3CN(CC4CC4)CCC3c3ccccc3)ccc2c1 (stereo not drawn) [Example 145]; 6.51
C[C@H]1CCN(CC2CC2)C[C@@H]1C(=O)c1ccc2cc(C#N)ccc2c1 (stereo in doubt) [Example 160a]; 5.77
CC[C@@H]1CCN(C2CCC2)C[C@H]1C(=O)c1ccc2cc(OC)ccc2c1 (single isomer, unassigned) [Example 142a]; 7.94
CCCN1CCCC(C(=O)c2cc(C(C)O)c3ccccc3c2)C1 (stereo not drawn) [Example 68]; 7.12
CCCN1CCCC(C(=O)c2ccc(Cl)c(Cl)c2)C1 (stereo not drawn) [Example 101]; 6.55

Lab note: measured pIC50 of CCCN1CCCC(C(=O)c2ccc(OC(F)(F)F)cc2)C1 (stereo not drawn) [Example 103] was 5.70

Lab note: measured pIC50 of COc1ccc2cc(C(=O)C3CCCN(CC4CC4)C3)ccc2c1C (stereo not drawn) [Example 49] was 6.79

Lab note: measured pIC50 of CCCN1CCCC(C(=O)c2ccc3c(C)c(C#N)ccc3c2)C1 (stereo not drawn) [Example 70] was 7.04

Lab note: measured pIC50 of O=C(c1cccc(Cl)c1)[C@H]1CCCN(CC2CC2)C1 (stereo in doubt) [Example 118b] was 6.18

Lab note: measured pIC50 of O=C(c1cccc(Oc2ccccc2)c1)[C@H]1CCCN(CC2CC2)C1 [Example 28] was 5.77

Lab note: measured pIC50 of CCCN1CCCC(C(=O)c2ccc(C)c(C)c2)C1 (stereo not drawn) [Example 106] was 6.61

Lab note: measured pIC50 of CCC[C@@H]1CCN(C2CCC2)C[C@H]1C(=O)c1ccc2c(CC#N)c(OC)ccc2c1 (stereo in doubt) [Example 184c] was 8.50

Lab note: measured pIC50 of CCC1CCN(C2CCC2)CC1C(=O)c1ccc2cc(OC)ccc2c1 (single isomer, unassigned) [Example 142d] was 8.18

Lab note: measured pIC50 of CCCN1CCCC(C(=O)c2ccc3c(C)c(OC)ccc3c2)C1 (stereo not drawn) [Example 50] was 7.59

Lab note: measured pIC50 of COc1ccc(C(=O)C2CCCN(C3CCC3)C2)c(OC)c1 (stereo not drawn) [Example 5] was 5.60

Lab note: measured pIC50 of COc1cccc2cc(C(=O)[C@@H]3CN(CC4CC4)CC[C@@H]3C)ccc12 (single isomer, unassigned) [Example 136b] was 5.92

Lab note: measured pIC50 of O=C(c1ccc2cc(CO)ccc2c1)C1CCCN(C2CCCC2)C1 (stereo not drawn) [Example 154] was 6.74

Lab note: measured pIC50 of COc1ccc2cc(C(=O)C3CCCN(C4CC(C#N)C4)C3)ccc2c1 (stereo not drawn) [Example 65] was 6.51

###

pIC50 values by entry
# target: Full length KDM2B (Homo sapiens (Human), UniProt Q8NHM5)
By convention, pIC50 is the negative base-10 log of a molar concentration.

Please review the following examples before continuing.
CCC1CCN(C2CC2)CC1C(=O)c1ccc2cc(OC)ccc2c1 (single isomer, unassigned) [Example 147a]; 5.70
CCCN1CC[C@@H](C)[C@@H](C(=O)c2ccc3c(CC#N)c(OC)ccc3c2)C1 (stereo in doubt) [Example 181a]; 5.89
O=C(c1ccc2ccccc2c1F)C1CCCN(CC2CC2)C1 (centres unmarked) [Example 128]; 6.88
COc1ccc2cc(C(=O)[C@H]3CN(CC4CC4)CC[C@H]3C)ccc2c1 (single isomer, unassigned) [Example 137c]; 5.96
COc1ccc2cc(C(=O)C3CCCN(C4CCOC4)C3)ccc2c1 (centres unmarked) [Example 15]; 6.37

pIC50 of CCC1CCN(C2CCC2)CC1C(=O)c1ccc2cc(OC)ccc2c1 (single isomer, unassigned) [Example 142b] , assay on Full length KDM2B (Homo sapiens (Human), UniProt Q8NHM5), is 6.46

pIC50 of O=C(c1cccc(-c2ccccc2)c1)C1CCCN(CC2CC2)C1 (centres unmarked) [Example 25] , assay on Full length KDM2B (Homo sapiens (Human), UniProt Q8NHM5), is 5.85

pIC50 of CC(O)c1cc(C(=O)C2CCCN(CC3CC3)C2)cc2ccccc12 (centres unmarked) [Example 67] , assay on Full length KDM2B (Homo sapiens (Human), UniProt Q8NHM5), is 6.83
